# assay overview: Acute toxicity (LD50) of oxendolone, rat
# test context: in vivo, ip, female, intraperitoneal
metric name: LD50 (mg/kg)
Expressed in mg/kg, but write only the number.

Exam item: Would you kindly share the measured LD50 for CC[C@H]1C[C@H]2[C@@H]3CCC4=CC(=O)CC[C@@H]4[C@H]3CC[C@]2(C)[C@H]1O [Oxendolone, 16β-ethyl-17β-hydroxy-4-estren-3-one] ?
Marked response: 5880

====

# assay overview: Acute toxicity (LD50) of oxendolone, mouse
# test context: in vivo, ip, female, intraperitoneal
metric name: LD50 (mg/kg)
Answer with a number only, understood to be in mg/kg.

Exam item: Need LD50, item CC[C@H]1C[C@H]2[C@@H]3CCC4=CC(=O)CC[C@@H]4[C@H]3CC[C@]2(C)[C@H]1O [Oxendolone, 16β-ethyl-17β-hydroxy-4-estren-3-one]
Marked response: 2980

====

# assay overview: Acute toxicity (LD50) of oxendolone, rat
# test context: in vivo, im, female, intramuscular
metric name: LD50

Exam item: // returns reported LD50 for input CC[C@H]1C[C@H]2[C@@H]3CCC4=CC(=O)CC[C@@H]4[C@H]3CC[C@]2(C)[C@H]1O [Oxendolone, 16β-ethyl-17β-hydroxy-4-estren-3-one]
Marked response: > 10000 mg/kg

====

# assay overview: Acute toxicity (LD50) of oxendolone, mouse
# test context: in vivo, im, female, intramuscular
metric name: LD50

Exam item: Please look up its LD50: CC[C@H]1C[C@H]2[C@@H]3CCC4=CC(=O)CC[C@@H]4[C@H]3CC[C@]2(C)[C@H]1O [Oxendolone, 16β-ethyl-17β-hydroxy-4-estren-3-one]
Marked response: > 10000 mg/kg
